Value source: patent US20250027068

target: pooled human IgG (human IgG1,2,3 and 4)
Binary label based on Enzyme Activity Endpoint Assay: Fab′2 with cut-off 700 ng/µL: below gives Yes, not below gives No.

PRT-260 (protein) MVTSVWTKGVTPPTNFTYGEDVLHAPYVANQGWYDITKTFNGKDNLLCGAATAGNMLHWWFDQNKEQIENYLKKHPEKQKINFNGEQLFDVKEAIDTKDSQLDSKLFDYFKEKAFPNLSTKHLGVFPDHVIDMFINGYRLSLLNHGPTPVKRGSKDKRGGIFDAVFTRGVQSKLLTNRHDFKEKTLKEISDLIKQELTEGKALGISHTYANVRINHVINLWGADFDAEGNLEAIYVTDSDTNPSIGMKKYFVGVNSSGKVAISAKEIEEDNIGAQVLGLFTLSTGQDIWNQTN    No
PRT-108 (protein) MRNATEAYAKEVPHQITSVWTKGVTPPTPEQFRYNNEDVIHAPYTAHQGWYDITKTFDGKDNLLCGAATAGNMLHWWFDQNKTEIEAYLSKHPEKQKIIFNNQELFDLKAAIDTKDSQTNSQLFNYFRDKAFPNLSARQLGVMPDLVLDMFINGYYLNVFKTQSTDVNRPYQDKDKRGGIFDAVFTRGDQTTLLTARHDLKNKGLNDISTLIKQELTEGRALALSHTYANVSISHVINLWGADFNAEGNLEAIYVTDSDANASIGMKKYFVGINAAGHVAISAKKIEGENIGAQVLGLFTLSSGKDIWQKLS    Yes
PRT-512 (protein) MITSVWTKGVTPPAKFTQGEDVFHAPYVANQGWYDITKAFDGGDDLLCGAATAGNMLHWWFDQNKEEIEAYLKKHPEKQKIMFGDQELLDVRKVINTKDSQTNSALFNYFKDKAFPNLSARRLGVMPDLVLDMFINGYYLNVYKTQTTDVNRTYQTKDRRGGIFDAVFTRGDQSKLLTERHDLKNKTLKEISDLIKQELTEGKALGLSHTYANVRINHVINLWGADFDSNGNLEAIYVTDSDSNASIGMKKYFVGVNSAGKVAISAKEIKEDNIGAQVLGLFTLSTGQDIWNQTNLEHHHHHH    No
PRT-105 (protein) MANQEIRYSEVTPYHVTSVWTKGVTPPAKFTQGEDVFHAPYVANQGWYDITKTFNGKDDLLCGAATAGNMLHWWFDQNKEEIEAYLKKHPDKQKIMFGDQELLDVRKVINTKGDQTNSELFNYFRDKAFPGLSARRIGVMPDLVLDMFINGYYLNVYKTQTTDVNRTYQEKDRRGGIFDAVFTRGDQSKLLTSRHDFKEKNLKEISDLIKKELTEGKALGLSHTYANVRINHVINLWGADFDSNGNLKAIYVTDSDSNASIGMKKYFVGVNSAGKVAISAKEIKEDNIGAQVLGLFTLSTGQDSWNQTN    Yes
PRT-448 (protein) MVTSVWTKGVTPPTDFIKGEDVFHAPYKAGQGWYDITKTFNGKDDLLCGAATAGNMLHWWFDQNKDQIEAYLKEHPEKQKINFNGEQMFDVKEAIDTKDDQTNSKLFEYFKEKAFPYLSTKHLGVFPDHVLDMFINGYRLSLTNHGPTPVKEGSKDPRGGIFDAVFTRGDQSKLLTSRHDLKNKTLKEISDLIKQELTEGKALALSHTYANVRINHVINLWGADFDSNGNLEAIYVTDSDSNASIGMKKYFVGVNSAGKVAISAKEIEDDNIGAQVLGLFTLSTGQDIWNQTNLEHHHHHH    Yes
PRT-293 (protein) MVTSVWTKGVTPPADFTQGEDVFHAPYVANQGWYDITKTFNGKDDLLCGAATAGNMLHWWFDQNKEYIEAYLKKHPEKQKIMFGDQELLDVRKAINTKGSQKNSELFNYFRDKAFPNLSARRLGVMPDLVLDMFINGYYLNVTKTQTTDVNRTYQEKDKRGGIFDAVFTRGDQSKLLTSRHDFKEKGLKEISDLIKQELTEGKALGLSHTYANVRLNHVINLWGADFDSDGNLKAIYVTDSDSNASIGMKKYGVGVNSAGKVAISAKEIKEDNIGAQVLGLFTLSTGQDIWNQTN    Yes
PRT-315 (protein) MQITSVWTKGVTPLTPEQFRENNEDVIHAPYLAHQGWYDITKAFDGKDNLLCGAATAGNMLHWWFDQNKTEIEAYLSKHPEKQKIIFNNQELFDLKAAIDTKDSQTNSQLFDYFRDKAFPNLSARQLGVMPDLVLDMFINGYYLNVFKTQSTDVNRPYQDKDKRGGIFDAVFTRGDQTTLLTARHDLKNKGLNDISTIIKQELTEGRALALSHTYANVSISHVINLWGADFNAEGELEAIYVTDSDANPSIGMKKYFVGRNAHGHVAISAKKIEGENIGAQVLGLFTLSSGKDIWQKLS    No
PRT-283 (protein) MVTSVWTKGVTPPAKFTQGEDVFHAPYDANQGWYDITKTFNGKDDLLCGAATAGNMLHWWFDQNKEKIEAYLKKHPDKQKIMFGDQELLDVRKVINTKGDQTNSELFNYFRDKAFPNLSARRIGVMPDLVLDMFINGYYLNVYKTQTTDVNRTYQEKDRRGGIFDAVFTRGDQSKLLTSRHDFKEKNLKEISDLIKKELTEGKALGLSHTYANVRISHVINLWGADFDSNGNLKAIYVTDSDSNASIGMKKYFVGVNSAGKVAISAKEIKEDNIGAQVLGLFTLSTGQDSWNQTN    Yes
